# Target: human recombinant MOR (Homo sapiens)
# Construct: expressed in transfected cells; host or cells: CHO cells (gift from Prof. Girolamo Calo', Ferrara University)
# Sequence (P35372 whole entry): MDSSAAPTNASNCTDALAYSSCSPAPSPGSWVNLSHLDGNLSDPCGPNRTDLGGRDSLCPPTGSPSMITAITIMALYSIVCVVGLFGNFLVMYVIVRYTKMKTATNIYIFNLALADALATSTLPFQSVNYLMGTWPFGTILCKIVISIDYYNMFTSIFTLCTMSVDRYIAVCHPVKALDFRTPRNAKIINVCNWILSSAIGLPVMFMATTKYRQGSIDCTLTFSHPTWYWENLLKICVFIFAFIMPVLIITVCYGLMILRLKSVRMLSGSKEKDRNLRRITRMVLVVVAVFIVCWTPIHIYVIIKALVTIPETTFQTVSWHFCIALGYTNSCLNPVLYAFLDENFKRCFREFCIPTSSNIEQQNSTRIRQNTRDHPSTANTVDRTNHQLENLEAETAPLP
# Experiment Summary: Calcium mobilization assay, CHO MOR cells with Gαqi5
# Type: cell-based
# Condition: intrinsic activity: Emax of ligand / Emax of dermorphin
Measurement Name: MOR α ± SEM

1) CC[C@H](NC(=O)c1c(OCCNC(=O)CCN2Cc3ccccc3C[C@H](NC(=O)[C@@H](CCCNC(=N)N)NC(=O)[C@@H](N)Cc3c(C)cc(O)cc3C)C2=O)c(-c2ccccc2)nc2ccccc12)c1ccccc1 0.83

----------
# Target: NK3 (h) (Homo sapiens)
# Construct: host or cells: CHO cells
# Experiment Summary: NK3 radioligand binding assay (Eurofins)
# Condition: [3H]SR 142801 0.4 nM, human recombinant (CHO cells); Cheng Prusoff; read-out: Ki [nM] ± SEM, NK3 receptor
Measurement Name: Ki (nM)

1. CC[C@H](NC(=O)c1c(OCCNC(C)=O)c(-c2ccccc2)nc2ccccc12)c1ccccc1 11

----------
# Target: human recombinant MOR (Homo sapiens)
# Construct: expressed in transfected cells; host or cells: CHO cells (gift from Prof. Girolamo Calo', Ferrara University)
# Experiment Summary: Calcium mobilization assay, CHO MOR cells with Gαqi5
# Type: cell-based
# Condition: intrinsic activity: Emax of ligand / Emax of dermorphin
Square brackets hold non-standard residues; d marks the D form. Peptide text beside a SMILES is read from it. * marks the point of attachment. Dmt = Cc1cc(O)cc(C)c1C[C@H](N)C(=O)O; 4Amb = NCc1ccc(C(=O)O)cc1; Ac5c = NC1(C(=O)O)CCCC1; X2 = C(CN*)CN1CCOCC1

Compound	MOR α ± SEM
Cc1cc(O)cc(C)c1C[C@H](N)C(=O)N[C@H](CCCNC(=N)N)C(=O)N[C@@H](Cc1ccccc1)C(=O)N[C@@H](CCCCN)C(=O)NCc1ccc(C(=O)NC2(C(=O)N[C@H](Cc3ccccc3)C(=O)NCCCN3CCOCC3)CCCC2)cc1 [SBL-OPNK-6] (H-[Dmt][dR]FK[4Amb][Ac5c][dF]-X2)	0.67
C[C@@H](NC(=O)[C@@H](N)Cc1ccc(O)cc1)C(=O)N[C@@H](Cc1ccccc1)C(=O)NCC(=O)N[C@@H](Cc1ccc(O)cc1)C(=O)N1CCC[C@H]1C(=O)N[C@@H](CO)C(N)=O [dermorphin, reference compound]	1.00

----------
# Target: NK3 (h) (Homo sapiens, UniProt P29371)
# Construct: host or cells: CHO cells
# Sequence (P29371 1-465): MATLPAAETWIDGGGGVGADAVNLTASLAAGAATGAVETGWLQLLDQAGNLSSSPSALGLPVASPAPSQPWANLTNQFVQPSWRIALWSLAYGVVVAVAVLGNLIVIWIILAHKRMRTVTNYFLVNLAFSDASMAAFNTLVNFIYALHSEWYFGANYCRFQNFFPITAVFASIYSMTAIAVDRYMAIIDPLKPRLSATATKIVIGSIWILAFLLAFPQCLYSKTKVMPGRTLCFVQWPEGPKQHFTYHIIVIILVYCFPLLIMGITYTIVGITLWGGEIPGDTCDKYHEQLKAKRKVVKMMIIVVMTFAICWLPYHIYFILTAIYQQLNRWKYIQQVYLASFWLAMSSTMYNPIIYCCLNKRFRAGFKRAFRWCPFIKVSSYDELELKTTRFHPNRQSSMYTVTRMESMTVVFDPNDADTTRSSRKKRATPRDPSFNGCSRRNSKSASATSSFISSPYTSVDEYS
# Experiment Summary: NK3 radioligand binding assay (Eurofins)
# Condition: [3H]SR 142801 0.4 nM, human recombinant (CHO cells), 120 min RT; read-out: IC50 [nM] ± SEM, NK3 receptor
Measurement Name: IC50

1) CC[C@H](NC(=O)c1c(OCCNC(C)=O)c(-c2ccccc2)nc2ccccc12)c1ccccc1 20.3 nM
